All figures here come from patent US4168318A.

Assay: Acute toxicity / acute tolerance after i.v. injection in mice (Experiment A)
Assay type: in vivo, mice (male and female SPF-mice, stock NMRI)
Details: mouse, in vivo, iv, 504.6 mg/kg, male mice; 504.6 mg/kg i.v.; N-methyl glucamine salt; 14 days observation; read-out: death rate %
VALUE KIND: mortality at 336 h (%)
Quick note: give the figure in %, leave out the unit.

Entry under test: COc1cc(C2Oc3c(O)cc(CC(=O)C(=O)c4c(O)cc(O)cc4O)cc3C2CO)ccc1O (stereo not shown) [Compound C] . Its mortality at 336 h was 100

====

Test: Acute toxicity / acute tolerance after i.v. injection in mice (Experiment A)
Format: in vivo, mice (male and female SPF-mice, stock NMRI)
Conditions: mouse, in vivo, iv, female mice; i.v.; given as N-methyl glucamine salt, expressed as Compound; read-out: DL50, converted to the free compound
VALUE KIND: LD50 at 336 h (mg/kg)
Dear colleague, please return just the value in mg/kg, with no unit written.

For reference, reported LD50 at 336 h for COc1cc(C2Oc3c(O)cc(CC(=O)C(=O)c4c(O)cc(O)cc4O)cc3C2CO)ccc1O (stereo not shown) [Compound C] stands at 274
